Where these numbers come from: PubChem BioAssay (NCI)

System: M14 melanoma
assay.protocol: NCI-60 one-dose screen, 48 h (100 = growth as untreated, 0 = no growth, -100 = all killed)
measurement.setup: 10 µM unless noted
This is part of a sample that, as a whole, favours compounds with a hit. Of some 83,000 tested, about 20% had one in any assay.
Response field label takes Met when growth is strictly below 70% and Not met in all other cases.

Prompt line: Lab note: confirm whether the reported growth for this compound is below 70%, equality not counting. compound: `O=C(c1ccncc1)N1N=C(c2ccc(Cl)cc2)C[C@H]1c1cn(-c2ccccc2)nc1-c1ccccc1`
Response line: Not met

Prompt line: # strict comparison: is reported growth < 70%? input = `Cc1[nH]c(C(=O)Nc2ccc(C(=O)N3CCN(c4cc5c(cc4F)c(=O)c(C(=O)O)cn5C4CC4)CC3)cc2OC(C)C)c(Cl)c1Cl`
Response line: Not met

Prompt line: growth under 70%? Item: `NC(N)=NCCCCCNc1noc(Cc2c[nH]c3cc(Br)ccc23)n1`
Response line: Not met

Prompt line: Lab note: confirm whether the reported growth for this compound is below 70%, equality not counting. compound: `COc1ccc(/C=C(\C#N)n2nnc3cc(F)c(F)cc32)cc1`
Response line: Met

Prompt line: Is growth strictly under 70% for the entry `Cc1ccc(NC(=O)c2sc3nc(C)c(Br)c(C)c3c2N)cc1` ?
Response line: Not met

Prompt line: Report whether reported growth is lower than 70% (strictly) for `COc1ccc(C/C(C)=C(\c2ccc(Cl)cc2)c2ccc(OCCN3CCCCC3)cc2)cc1`
Response line: Not met

Prompt line: I wonder whether O=C(NCc1ccc(Cl)cc1Cl)C1CCC(=O)N1c1cccs1 (configuration not stated) has growth below 70%. Can you tell?
Response line: Not met

Prompt line: Please determine if `COc1cc2oc(-c3cccc(NC(=O)c4ccccc4)c3)cc(=O)c2c(OC)c1OC` is below 70% in terms of growth.
Response line: Not met

Prompt line: For `CCOC(=O)Cc1cnc(N/N=C(\C)c2cc3ccccc3o2)s1` , is the recorded growth below the cut-off of 70%?
Response line: Not met

Prompt line: Answer whether the compound `C=C(C)[C@@H]1CCC[C@]2(COS(=O)(=O)c3ccc(C)cc3)CC[C@]3(C)[C@@H](CC[C@@H]4[C@@]5(C)CCCNC(C)(C)[C@@H]5CC[C@]43C)[C@@H]12` has growth strictly less than 70%
Response line: Met

Prompt line: For this compound, is growth lower than 70%? `NS(=O)(=O)c1ccccc1NC(=O)Nc1nc2ccccc2s1`
Response line: Not met

Prompt line: Field: below-cutoff. Rule: recorded growth strictly less than 70%. Subject: `COc1ccc(Nc2ncc(Br)c(NCCCNC(=O)c3cccs3)n2)cc1`
Response line: Met

Prompt line: In plain terms, does `Cc1cc(=O)n(C(=O)Nc2ccccc2Cl)c2cc(O)ccc12` come in under 70% for growth?
Response line: Not met

Prompt line: is_below(growth, 70%) for `COc1ccc(CN2c3ccccc3Sc3ccccc32)cc1F` ?
Response line: Met

Prompt line: growth under 70%? Item: `C=CCOC(=O)Nc1cccn([C@H](Cc2ccccc2)C(=O)NCCC(C)C)c1=O`
Response line: Not met

Prompt line: Item `Cn1cc(-c2ccc3nc(-c4ccc(CC(=O)ONc5cc(C(C)(C)C)on5)cc4)cnc3c2)cn1` : growth beneath 70%, strictly?
Response line: Met

Prompt line: Could you please tell me whether growth recorded for COc1cc2c(c(OC)c1OC)CCC(c1cccc(NC(=O)c3ccc(Br)cc3)c1)O2 (configuration not stated) is less than 70%?
Response line: Not met

Prompt line: Given the entry `O=C(COc1ccc(-c2nc3cc(Cl)c(Cl)cc3[nH]2)cc1)N=Nc1c(O)[nH]c2ccc(Cl)cc12` , would its reported growth be below 70%?
Response line: Met

Prompt line: Identify whether the compound `COc1ccc(/C=C(\C#N)n2nnc3cc(Cl)ccc32)cc1` records growth below 70%.
Response line: Met

Prompt line: Please determine if `O=C(NNC(=O)c1ccc(NC(=O)c2ccccn2)cc1)Nc1ccc([N+](=O)[O-])cc1` is below 70% in terms of growth.
Response line: Not met

Prompt line: Problem: For the compound `Cc1ccc(-c2nc([P+](c3ccccc3)(c3ccccc3)c3ccccc3)c(S(=O)(=O)c3ccc(C)cc3)o2)cc1` , is growth under 70%?
Response line: Met

Prompt line: Does this compound meet the criterion growth < 70%? `Cc1c2cnccc2c(C)c2c1c1cc(C#N)ccc1n2C`
Response line: Met

Prompt line: is_below(growth, 70%) for `CCN(CC)CCn1c2ccc(OC)cc2c2sc3cc(OC)ccc3c(=O)c21` ?
Response line: Met

Prompt line: Does the reported growth of `Cc1ccc(-c2nc(N3CCCNCC3)c3oc(-c4ccccc4)nc3n2)cc1` stay below 70%?
Response line: Met

Prompt line: Determine whether this compound shows growth lower than 70% (ties excluded): `c1ccc(-c2oc(-c3ccccc3)c(CN3CCCCC3)c2CN2CCCCC2)cc1`
Response line: Met

Prompt line: Is growth of `CC1=C2[C@@H](CC1)[C@]1(C)O[C@@](C(C)C)(C[C@H]1OC(=O)[C@H](C)O)[C@H]2OC(=O)/C=C/c1ccccc1` strictly below 70%?
Response line: Not met

Prompt line: Given `NS(=O)(=O)c1ccc(N=Nc2c(O)n(Cc3ccccc3)c3ccc(Cl)cc23)cc1` , is recorded growth strictly lower than 70%?
Response line: Not met

Prompt line: Is the reported growth for `C=CCn1c(SCC(=O)Nc2ccc(C(=O)/C=C/c3ccc(Cl)cc3)cc2)nnc1-c1ccc(Br)cc1` strictly below 70%?
Response line: Not met

Prompt line: Please let me know if `COc1ccc(/C=N\Nc2nc(SCCC(C)C)nc(-c3ccc(OC)cc3)c2C#N)cc1` shows growth below 70%.
Response line: Not met

Prompt line: Does the reported growth of the following compound sit strictly below 70%? `O=C1C(Cl)=C(Nc2ccc(S(=O)(=O)N3CCOCC3)cc2)C(=O)c2ccccc21`
Response line: Met

Prompt line: Lab log: compare recorded growth with 70%; is it strictly lower for `CCCCNC(=O)Oc1ccc(/C(=C(/C)Cc2ccc(OC)cc2)c2ccc(OCCN3CCCC3)cc2)cc1` ?
Response line: Met

Prompt line: Find out if reported growth for `C=C1C(=O)O[C@H]2[C@H]1CC/C(COC(=O)C(=O)c1cn(C)c3ccc(Cl)cc13)=C\CC[C@@]1(C)O[C@@H]21` is less than 70%
Response line: Met

Prompt line: Does this compound meet the criterion growth < 70%? `CCC1=C[C@@H]2C[C@]3(C(=O)OC)c4[nH]c5ccccc5c4CC[N@+](CC(=O)Nc4cc5c(cc4OC)N(C)[C@H]4[C@@](O)(C(=O)OC)[C@H](OC(C)=O)[C@]6(CC)C=CCN7CC[C@]54[C@@H]76)(C2)[C@H]13`
Response line: Not met

Prompt line: Find out if reported growth for O=C1NC(=O)C(Cc2ccc(OCc3ccc(-c4ccc(Cl)cc4Cl)cc3)cc2)S1 (configuration not stated) is less than 70%
Response line: Met

Prompt line: is_below(growth, 70%) for `CCOC(=O)c1c2c(n3cccc(F)c13)C(=O)c1ncccc1C2=O` ?
Response line: Met

Prompt line: Consider the compound `C/C(=N\O)c1ccc(Cl)cc1` . Is its growth strictly less than 70%?
Response line: Not met
